Target: T1, human GPRC5D (human, UniProt Q9NZD1 1-345)
T1 construct: whole, on cells; also called hGPRC5D; G-protein coupled receptor family C group 5 member D
T1 sequence (Q9NZD1 whole entry): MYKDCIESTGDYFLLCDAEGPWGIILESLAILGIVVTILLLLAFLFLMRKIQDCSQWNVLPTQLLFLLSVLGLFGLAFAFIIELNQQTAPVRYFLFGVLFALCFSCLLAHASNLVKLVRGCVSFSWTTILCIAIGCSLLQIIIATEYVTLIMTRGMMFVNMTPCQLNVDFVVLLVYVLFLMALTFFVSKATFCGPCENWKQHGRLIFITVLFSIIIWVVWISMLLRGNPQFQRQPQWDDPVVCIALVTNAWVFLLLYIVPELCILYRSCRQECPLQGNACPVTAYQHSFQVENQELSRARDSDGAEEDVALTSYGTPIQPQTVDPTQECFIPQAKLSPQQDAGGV
Assay: FACS, HEK293T-hGPRC5D cells
Description: The subcloning plates were screened by Mirrorball assay and the subclones with good binding ability were expanded to 24-wells for confirmation tests. The specificity and cross-reactivity of these subclones were confirmed with FACS analysis. […] Median fluorescence intensity (MFI) was measured by FACS analysis, […]
Exercise: for every item that follows, state its recorded MFI.

(Q) Give its MFI value. Item: 28H9C12 (antibody, V domains shown, Mouse monoclonal antibody from hybridoma subclone; also called 281H9C12) VH: EVQLVESGGGLVKPGGSLKLSCAASGFTFSDYGMHWVRQAPEKGLEWVAYISSGSSTIYYADTVKGRFTISRDNAKNTLFLQMTSLRSEDTAIYYCVRRPWYFDVWGTGTTVTVSS VL: DVLMTQTPLSLPVSLGDQASISCRSSQSIVHSNGNTYLQWYLQKPGQSPKLLIYKVSNRFSGVPDRFSGSGSGTDFTLKISRLEAEDLGVYYCFQGSHVPFTFGSGTKLEIK
(A) 25100

(Q) Give its MFI value. Item: 116F1G6 (antibody, V domains shown, Mouse monoclonal antibody from hybridoma subclone) VH: EVQLQHSGPELVKPGASVKMSCKASGYTFTTYVMHWVKQKPGQGLEWIGYINPYNDGTKYNEKFKGKATLTSDKSSSTAYMELSSLTSEDSAVYYCARGGVRRYFDVWGAGTTVTVSS VL: DIQMTQSPSSLSASLGERVSLTCRASQDIGSNLNWLQQEPNGTIKRLIYATFTLDSGVPKRFSGSRSGSDYSLTISSLESEDFVDYYCLQYASFPYTFGGGTKLEIK
(A) 42800

(Q) Give its MFI value. Item: 12G12C2 (antibody, V domains shown, Mouse monoclonal antibody from hybridoma subclone) VH: QIQLVQSGPELKMPGETVKISCKASGYTFTTYGLSWVKQAPGKGLKWMGWINTFSGVPIYADDFKGRFAFSLETSASTAYLQINNLKNEDTATYFCARWGIRQRGDYWGQGATLTVSS VL: QIVLTQSPAIMSASPGEKVTMTCSASSSVSYLHWYQQKSGTSPKRWIYDTSKLASGVPVRFSGSGSETSYSLTISSMEAEDAATYYCQQWTSNPPTFGGGTKLEIK
(A) 32100

(Q) Give its MFI value. Item: 110B4H5 (antibody, V domains shown, Mouse monoclonal antibody from hybridoma subclone) VH: EVQLQQSGPELVKPGASVKMSCKASGYTFTFYIMHWVKQKPGQGPEWIGYINPYNDGTKYNAKFKGKATLSSDRSSSTAYMELSSLTSEDSAVYYCARGGVRRYFDVWGAGTPVTVSS VL: DIQMTQSPSSLSASLGERVSLTCRSSQDIGSNLNWLQQEPDGTIKRLIYATFSLDSGVPKRFSGSRSGSHYSLTISSLESEDFVVYYCLQYGSFPYTFGGGTKLEIK
(A) 5250

(Q) Give its MFI value. Item: 87A3G8 (antibody, V domains shown, Mouse monoclonal antibody from hybridoma subclone) VH: QVQLKESGPGLVAPSQSLSITCTVSGFSLSSYSVYWVRQPPGKGLEWLGVIWAGGSTNYNSALMSRLSINKDKSKSQVFLKMNSLQTDDSAIYYCAMRWLPRGLDFWGQGTSVTVSS VL: DIVMTQSHKFMSTSVGDRVSITCKASQDVGTAVAWYQQKPGQSPKLLIYWASTRHTGVPDRFTGSGSGTDFTLTISNVQSEDLADYFCQQYSTYYTFGGGTKLEIK
(A) 7380
